Form field: phosphorylation enrichment (one value per entry).
System: c-Src
Assay: phosphorylation enrichment, bacterial display (enrichment ratio); higher = better substrate or ligand; peptides without Tyr show the background
Kindly provide the number alone.

- SEQUENCE_STRING: "YDGKEYDPVEA [MAPRE2_Y167]"
  phosphorylation enrichment: 0.645
- SEQUENCE_STRING: "LDAFIYDAAVL [GRIN2A_Y730]"
  phosphorylation enrichment: 6.55

Prompt: Name the recorded phosphorylation enrichment for KQFWRYFAGNL [SLC25A4_Y112] .
Response: 0.507

---

Test system: Fer (mouse)
Test: phosphorylation enrichment, bacterial display (enrichment ratio); higher = better substrate or ligand; peptides without Tyr show the background
phosphorylation enrichment of 0.6 or higher: fulfilled. Under 0.6: not fulfilled.

Past entries and their recorded results:
- SEQUENCE_STRING: "MKSIKYMDKEI [CCDC60_Y41]"
  TESTED_TARGET: "Fer (mouse)"
  CAT: "not fulfilled"
- SEQUENCE_STRING: "NKVKFYIPDMN [NCR1_Y84]"
  TESTED_TARGET: "Fer (mouse)"
  CAT: "not fulfilled"
- SEQUENCE_STRING: "MARDISRASFF [ALK_Y1278_Y1278S_YF]"
  TESTED_TARGET: "Fer (mouse)"
  CAT: "not fulfilled"
- SEQUENCE_STRING: "EEVGIYRMSGV [BCR_Y1089_V1091M]"
  TESTED_TARGET: "Fer (mouse)"
  CAT: "not fulfilled"
- SEQUENCE_STRING: "RTLIRYANLSN [BEST1_Y131_G135S]"
  TESTED_TARGET: "Fer (mouse)"
  CAT: "not fulfilled"
- SEQUENCE_STRING: "FQGRRYDCDCD [CRYGS_Y21]"
  TESTED_TARGET: "Fer (mouse)"
  CAT: "not fulfilled"
- SEQUENCE_STRING: "EFLQKYKGFKI [SYNE1_Y6953_YF]"
  TESTED_TARGET: "Fer (mouse)"
  CAT: "not fulfilled"
- SEQUENCE_STRING: "GRTPLYMDRQG [AGXT_Y194_G190R]"
  TESTED_TARGET: "Fer (mouse)"
  CAT: "not fulfilled"

Prompt: Check this sequence for phosphorylation enrichment at or above 0.6: MASTSYDFCRV [BST2_Y6_YF]
Response: fulfilled

Prompt: // next record FDDDDYDMDFV [BLM_Y296_T298M]
Response: not fulfilled

Prompt: Let us now turn to PIFEGYGLPHA [ACTA1_Y171_A172G_YF]
Response: fulfilled

Prompt: Then what about the sequence FDKPVYQKTTE [LDLR_Y828_N825K] ?
Response: not fulfilled

Prompt: Then NHFKIHNLCAE [PTEN_Y68_Y68H_YF] ?
Response: not fulfilled

Prompt: What do we get for GFVEDYRPPFF [ACVRL1_Y421_I417F_YF] ?
Response: not fulfilled

Prompt: Now this one: ESKAGYRVPRS [CLDN7_Y195]
Response: not fulfilled

Prompt: Likewise for LPVHFYGHVEH [PYGM_Y204] ?
Response: fulfilled

Prompt: Try this sequence too: FKEVVYQAMEE [TACC3_Y684_E680K]
Response: fulfilled

---

Target: Fes (UniProt P07332)
Sequence (P07332 whole entry, looked up): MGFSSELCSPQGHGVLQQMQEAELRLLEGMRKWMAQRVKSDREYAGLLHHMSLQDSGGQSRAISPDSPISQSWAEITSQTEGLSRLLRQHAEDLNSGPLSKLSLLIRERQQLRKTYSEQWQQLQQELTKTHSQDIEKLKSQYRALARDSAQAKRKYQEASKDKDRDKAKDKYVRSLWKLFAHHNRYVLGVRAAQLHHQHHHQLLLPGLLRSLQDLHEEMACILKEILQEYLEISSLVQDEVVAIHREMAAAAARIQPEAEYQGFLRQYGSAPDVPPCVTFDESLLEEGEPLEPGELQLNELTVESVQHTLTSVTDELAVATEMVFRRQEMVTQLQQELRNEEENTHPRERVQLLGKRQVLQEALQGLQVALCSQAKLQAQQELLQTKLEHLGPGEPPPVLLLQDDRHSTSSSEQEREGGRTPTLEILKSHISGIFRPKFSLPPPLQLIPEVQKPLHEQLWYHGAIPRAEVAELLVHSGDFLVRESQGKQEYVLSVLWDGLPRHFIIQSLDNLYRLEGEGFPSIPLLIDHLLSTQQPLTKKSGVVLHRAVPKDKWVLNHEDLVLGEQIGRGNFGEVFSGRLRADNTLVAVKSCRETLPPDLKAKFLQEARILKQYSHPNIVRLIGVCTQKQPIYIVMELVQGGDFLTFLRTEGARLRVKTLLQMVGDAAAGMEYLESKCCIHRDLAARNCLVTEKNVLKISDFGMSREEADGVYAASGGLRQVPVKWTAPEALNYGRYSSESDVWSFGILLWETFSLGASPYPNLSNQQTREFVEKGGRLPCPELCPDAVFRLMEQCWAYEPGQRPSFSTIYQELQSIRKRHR
Experiment: phosphorylation enrichment, bacterial display (enrichment ratio); higher = better substrate or ligand; peptides without Tyr show the background
Quick rule: phosphorylation enrichment of at least 0.8 means Satisfied, below that means Not satisfied.

Solved entries (count: 5):
- SEQUENCE_STRING: "SARFRYLLAEK [LDHB_Y173_M175L]"
  CAT: "Not satisfied"
- SEQUENCE_STRING: "GGDAVYTNGTI [RFX2_Y82_A86T]"
  CAT: "Satisfied"
- SEQUENCE_STRING: "IGDENYGEGSS [ACO2_Y665]"
  CAT: "Satisfied"
- SEQUENCE_STRING: "GHLFAYDWISI [BEST1_Y227_YF]"
  CAT: "Satisfied"
- SEQUENCE_STRING: "HKANEYYPVVI [ADAMTS18_Y764_L769I]"
  CAT: "Not satisfied"

Prompt: Could you please find out whether LMLVLYGRIFL [HTR1A_Y215_R220L] has phosphorylation enrichment that meets 0.8 or exceeds it?
Response: Satisfied

Prompt: Same for PESILYRKFTT [NTRK1_Y701]
Response: Satisfied

Prompt: What would you report for RKPDIYERLAS [MCM4_Y459] ?
Response: Satisfied

Prompt: Repeat with CERFSYYGMKA [SLC15A2_Y60]
Response: Satisfied

Prompt: What do you get for TIQSMYGCDVG [HLA-B_Y123_L119I] ?
Response: Satisfied

---

Biological target: c-Src SH2
Assay: SH2 binding enrichment of the phosphorylated peptide, bacterial display (enrichment ratio); higher = better substrate or ligand; peptides without Tyr show the background
Category | rule: reported SH2 binding enrichment within range, see bin A = under 0.5, bin B = from 0.5 up to 0.7, bin C = 0.7 and over

Worked set:
- SEQUENCE_STRING: "SLALFYRNVFH [RBL1_Y792_K794N_YF]"
  CAT: "bin B"
- SEQUENCE_STRING: "LPIQTYSALNF [DES_Y423]"
  CAT: "bin C"

Prompt: Just checking, what class would you give PPPPAYDDVAQ [TNK2_Y635] here?
Response: bin C

Prompt: Now try NNTFLYQLVFD [EXO1_Y284] .
Response: bin C

Prompt: What do we get for PIYLYYLMDLS [ITGB2_Y131_D128Y] ?
Response: bin C

Prompt: Record: CGADSYEMEED [EGFR_Y316]
Response: bin C

Prompt: // repeat for CTTIHNNFMCN [TP53_Y234_Y234N_YF] and report
Response: bin C

Prompt: Request: QVQQIYSDSDL [MIB1_Y376_R371Q]
Response: bin B

Prompt: Do the same for RWQQLYDTLNA [EIF3M_Y351_Q346R] please
Response: bin A

Prompt: For RPFSPYIIRGM [LRP5_Y1531_R1529S_YF] then?
Response: bin A

Prompt: Now this one: ELTAKYLNYYQ [P3H4_Y181]
Response: bin C

Prompt: Same lookup for AYGNLYGSRKQ [YIPF7_Y59] , please.
Response: bin B

Prompt: Follow-up entry: QQMGTYGVRAA [ICAM2_Y260_R256Q]
Response: bin A

Prompt: Another sequence to check: NVLPEYKLQAP [KCNH2_Y388_D383N]
Response: bin A

---

Molecular target: SHP2-C SH2
Test: SH2 binding enrichment of the phosphorylated peptide, bacterial display (enrichment ratio); higher = better substrate or ligand; peptides without Tyr show the background
MEASURED_METRIC: SH2 binding enrichment
The answer should be written as a number, with no unit following it.

- SEQUENCE_STRING: "VDSGVYAVPPP [BCAR1_Y410]"
  MEASURED_METRIC: "SH2 binding enrichment"
  OBSERVED_RESULT: 0.624
- SEQUENCE_STRING: "SSENPYATIKD [MEGF10_Y1030]"
  MEASURED_METRIC: "SH2 binding enrichment"
  OBSERVED_RESULT: 9.45
- SEQUENCE_STRING: "IHFPPYTDWNQ [ALDH3B2_Y365_YF]"
  MEASURED_METRIC: "SH2 binding enrichment"
  OBSERVED_RESULT: 0.736
- SEQUENCE_STRING: "MHYSNYVSKGS [PDGFRA_Y849_D846Y]"
  MEASURED_METRIC: "SH2 binding enrichment"
  OBSERVED_RESULT: 0.78
- SEQUENCE_STRING: "GGQSVYHVNLH [HINT1_Y109_H112N]"
  MEASURED_METRIC: "SH2 binding enrichment"
  OBSERVED_RESULT: 0.663

Prompt: Tell me reported SH2 binding enrichment for FGMSTYITRED [FNDC3B_Y180_YF] , tested with SHP2-C SH2.
Response: 0.745

Prompt: How about VRTGIYHGGEP [PIK3CA_Y361] ?
Response: 0.588

Prompt: Quick one: NKVKFYIPDMN [NCR1_Y84]
Response: 0.849

Prompt: Continue with CGADSYEMEED [EGFR_Y316]
Response: 0.652

Prompt: // query: SGASGYSATST [CERT1_Y143]
Response: 0.578

---

Tested on: c-Abl (mouse)
Experiment: phosphorylation enrichment, bacterial display (enrichment ratio); higher = better substrate or ligand; peptides without Tyr show the background
phosphorylation enrichment class ranges: low band (below 0.6), middle band (0.6 to below 0.9), high band (0.9 or more)

- SEQUENCE_STRING: "ESLRRYLENGK [HLA-B_Y195_W191S]"
  CAT: "low band"
- SEQUENCE_STRING: "SLAARYFNWVS [FLT4_Y1230_YF]"
  CAT: "middle band"
- SEQUENCE_STRING: "VTNHIYTWVDP [DFNB31_Y234]"
  CAT: "middle band"
- SEQUENCE_STRING: "KREPQYSSHSS [SIPA1L3_Y1265_G1261R]"
  CAT: "low band"
- SEQUENCE_STRING: "RVLHNYLVWCV [ECEL1_Y400_R404C]"
  CAT: "high band"

Prompt: Where would RARPPYTVAAD [ANKZF1_Y572] land among the classes by reported phosphorylation enrichment?
Response: low band

Prompt: How about SNPAFYVLEGV [INPPL1_Y987_N982S_YF] ?
Response: middle band

Prompt: Then this sequence: ELTAKYLNYYQ [P3H4_Y181]
Response: low band

Prompt: Also EQSNPYMVLDI [ROCK2_Y1197] ?
Response: middle band

Prompt: How about YLEEEYVKAVG [TF_Y674_G671E] ?
Response: high band
